Tested on: serum 62 (individual 62)
Type: binding, human
Quick list: Binding of serum 62 to linear peptides of Orf14 of SARS-CoV TOR2 per entry.
Give only the figure.

polymerSequence | readoutNumber
QKASTQREAEAAVKP | 0.3
GEILLLEWLAEVVKL | 0.5
VVAVIQEIQLLAAVG | 0.8
VIQEIQLLAAVGEIL | 0.4
CQKASTQREAEAAVK | 0.2
LPPCYNFLKEQHCQK | 0.2
PHHVVAVIQEIQLLA | 0.3
KEQHCQKASTQREAE | 0.2

The reported value for NFLKEQHCQKASTQR in terms of Binding of serum 62 to linear peptides of Orf14 of SARS-CoV TOR2 is 0.3
